Test system: β-galactosidase in CMV-LacZ C2C12 myotubes
Assay: CMV-LacZ secondary screen in C2C12 myotubes (β-Gal stabilizing assay)
Type: cell-based, mouse
Conditions: 0.5 uM; C2C12 CMV-LacZ myotubes; fold relative to DMSO
measured_attribute: CMV-LACZ in Myotubes, signal relative to DMSO
// print number alone

Example molecules with recorded CMV-LACZ in Myotubes, signal relative to DMSO:
CC(C)Oc1cccc(C(=O)Nc2ccc(CN3CCOCC3)cc2)c1 [MLS000062431-01]
0.9133
CC(=O)Nc1ccc(NC(=O)c2cc(=O)c3cc(C)cc(C)c3o2)cc1 [MLS001200396-01]
0.9137
COc1ccc(OC)c(S(=O)(=O)Nc2c(NC3CCCCC3)c3ccccc3oc2=O)c1 [MLS001095705-01]
0.9486
Cc1ccccc1NC(=O)NCCCN1CCN(C)CC1 [MLS001197665-01]
0.9415
COc1ccc(NC(=O)C2(N(C(=O)Cn3nnnc3N)c3ccc(OC)cc3)CCCCC2)cc1 [MLS001030268-01]
0.8830

Documented CMV-LACZ in Myotubes, signal relative to DMSO of CC(NC(=O)c1ccc(C(C)(C)C)cc1)C(c1cccs1)N1CCOCC1 (stereo not drawn) [MLS001167281-01] : 1.0663

CMV-LACZ in Myotubes, signal relative to DMSO for Cc1ccsc1-c1n[nH]c(=S)n1C1CCCCC1 [MLS000698617-01] is 1.1221

Form: molecule = CCCc1nnc(SCC(=O)NC2CCCC2)n1CCOC [MLS001217935-01] ; CMV-LACZ in Myotubes, signal relative to DMSO = 0.9705

Value of CMV-LACZ in Myotubes, signal relative to DMSO reported for the molecule Cn1ccc(C(=O)Nc2cccnc2Cl)n1 [MLS001147478-01] is 1.3536
